- target_under_test: Arginase-1 (Homo sapiens)
- Sequence (P05089 whole entry): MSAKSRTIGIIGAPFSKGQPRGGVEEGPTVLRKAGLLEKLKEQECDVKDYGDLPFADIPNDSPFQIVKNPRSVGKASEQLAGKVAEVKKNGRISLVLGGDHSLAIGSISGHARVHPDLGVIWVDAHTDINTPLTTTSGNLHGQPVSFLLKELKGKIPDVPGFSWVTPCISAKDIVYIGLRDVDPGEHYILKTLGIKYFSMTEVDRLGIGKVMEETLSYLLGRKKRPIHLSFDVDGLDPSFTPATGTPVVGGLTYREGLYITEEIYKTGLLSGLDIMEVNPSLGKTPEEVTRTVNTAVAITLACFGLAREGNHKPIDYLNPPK
- assay_details: Inhibition of human recombinant ARG1 expressed in Escherichia coli using L-arginine hydrochloride as substrate assessed as inhibition of urea production incubated for 20 mins by colorimetric analysis
assay_readout: IC50 (nM)

Use these answered entries as a reference point.
**Query** Report IC50 for N[C@@H](Cc1c[nH]c2ccccc12)C(=O)N1C[C@@H](CCB(O)O)C[C@](N)(C(=O)O)C1 please.
**Result** 280

**Query** Reported IC50 for C[C@@H]1N(C(=O)[C@@H](N)CCCNC(=N)N)C[C@@H](CCB(O)O)C[C@]1(N)C(=O)O : what is it?
**Result** 400

**Query** Given NC(=O)C[C@H](N)C(=O)N1C[C@@H](CCB(O)O)C[C@](N)(C(=O)O)C1 , state its recorded IC50.
**Result** 360

(A) NC(=O)NCCC[C@H](N)C(=O)N1C[C@@H](CCB(O)O)C[C@](N)(C(=O)O)C1
(B) N[C@@H](Cc1ccccc1)C(=O)N1C[C@@H](CCB(O)O)C[C@](N)(C(=O)O)C1
**Query** From the items above, decide which of A and B has the lower IC50 reading. I would appreciate it if you answered with the label of your choice.
**Result** B
(B: 240 nM, A: 360 nM)

(a) N[C@@H](CO)C(=O)N1C[C@@H](CCB(O)O)C[C@](N)(C(=O)O)C1
(b) CSCC[C@H](N)C(=O)N1C[C@@H](CCB(O)O)C[C@](N)(C(=O)O)C1
**Query** Recorded IC50 values differ for a and b ; which one is higher? Provide the label of your selected option as the answer.
**Result** b
(b: 400 nM, a: 280 nM)

(I) N[C@@H](CCC(=O)O)C(=O)N1C[C@@H](CCB(O)O)C[C@](N)(C(=O)O)C1
(II) CNCC(=O)N1C[C@@H](CCB(O)O)C[C@](N)(C(=O)O)C1
(III) NCCCC[C@H](N)C(=O)N1C[C@@H](CCB(O)O)C[C@](N)(C(=O)O)C1
**Query** Please rank these compounds by IC50 in descending order. Labels, ranked as asked.
**Result** I, II, III
